Tested on: HK-2 cells
Assay: MTT cytotoxicity on HK-2 cells in HK-2/HepaRG co-culture
Type: cell-based
Details: read-out: Renal cytotoxicity IC50 HK-2 24 h; co-culture, 24 h, MTT
Measured pIC50 values are reported for all entries that follow.
For clarity, pIC50 is expressed as the negative log10 of concentration in mol/L.

Solved entries (count: 2):
# molecule, endpoint_result
rows = [
    ("COc1ccc2c(c1OC)C(=O)c1c(cc(C)c(O)c1OC)C2=O", 3.48),
    ("COc1cc2c(c(O)c1OC)C(=O)c1c(cc(C)c(O[C@@H]3O[C@H](CO)[C@@H](O)[C@H](O)[C@H]3O)c1OC)C2=O", 3.59),
]

# lookup: pIC50 of COc1cc2c(c(O)c1OC)C(=O)c1c(cc(C)c(O)c1OC)C2=O
4.30

Same lookup for COc1c(O[C@@H]2O[C@H](CO)[C@@H](O)[C@H](O)[C@H]2O)c(C)cc2c1C(=O)c1c(O)cccc1C2=O [No. 16, Obtusifoline-2-O-β-D-glucoside] , please.
3.57
